tgt: Human BTK enzyme (Homo sapiens, UniProt Q06187)
Construct: Reaction Biology Corporation
Sequence (Q06187 whole entry): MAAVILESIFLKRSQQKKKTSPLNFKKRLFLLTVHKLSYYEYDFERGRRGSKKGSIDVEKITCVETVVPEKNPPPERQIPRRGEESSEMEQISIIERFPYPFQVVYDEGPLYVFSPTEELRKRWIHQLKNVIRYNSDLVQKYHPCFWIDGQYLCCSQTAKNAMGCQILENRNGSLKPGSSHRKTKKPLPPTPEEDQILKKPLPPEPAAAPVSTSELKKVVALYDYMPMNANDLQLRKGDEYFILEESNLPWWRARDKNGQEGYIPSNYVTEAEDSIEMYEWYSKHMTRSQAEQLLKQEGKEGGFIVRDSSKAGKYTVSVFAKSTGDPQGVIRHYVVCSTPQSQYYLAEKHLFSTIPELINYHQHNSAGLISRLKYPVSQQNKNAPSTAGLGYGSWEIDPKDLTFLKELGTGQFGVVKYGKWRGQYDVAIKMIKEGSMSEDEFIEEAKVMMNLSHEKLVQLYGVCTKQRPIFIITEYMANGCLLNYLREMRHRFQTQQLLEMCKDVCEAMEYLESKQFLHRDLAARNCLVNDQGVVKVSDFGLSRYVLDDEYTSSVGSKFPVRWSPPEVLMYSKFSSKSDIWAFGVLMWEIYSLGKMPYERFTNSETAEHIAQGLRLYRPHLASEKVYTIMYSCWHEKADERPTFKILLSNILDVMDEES
experiment-notes: BTK inhibitory activity assay at Reaction Biology Corporation, peptide substrate
Format: biochemical
measurement-parameters: compound at 5 nM; peptide substrate 20 μM; ATP 10 μM; read-out: Inhibition of ALK, IC50 (Inhibitory Activities of examples at 5 nM)
value-kind: inhibition at 0.005 µM (%)

compound: C=CC(=O)N1CCCC2(CC(n3nc(-c4ccc(Oc5ccccc5)cc4)c4c(N)ncnc43)C2)C1 (stereo not shown)
inhibition at 0.005 µM [%]: 85.7

compound: C=CC(=O)N1CC2(CCC(n3nc(-c4ccc(Oc5ccccc5)cc4)c4c(N)ncnc43)CC2)C1
inhibition at 0.005 µM [%]: 96.4

compound: C=CC(=O)N1CCC2(CC1)CC(n1nc(-c3ccc(Oc4ccccc4)cc3)c3c(N)ncnc31)C2
inhibition at 0.005 µM [%]: 80.1

compound: C=CC(=O)N1CC2(CC(n3nc(-c4ccc(Oc5ccccc5)cc4)c4c(N)ncnc43)C2)C1
inhibition at 0.005 µM [%]: 98.5
